TESTED TARGET: NA activity of A(H1N1pdm09)-WT (Influenza A virus, UniProt C7FH46)
Type: biochemical
MEASUREMENT PARAMETERS: read-out: IC50 (nM), neuraminidase inhibitor
METRIC NAME: IC50 (nM)

# SMILES DATA, METRIC NAME, VALUE
measured = [
    ("CCC(CC)[C@H](NC(C)=O)[C@@H]1[C@H](O)[C@@H](C(=O)O)C[C@H]1N=C(N)N", "IC50", 0.15),
]

---

TESTED TARGET: NA activity of A(H3N2)-WT (Influenza A virus, UniProt P06818)
Assay type: biochemical
MEASUREMENT PARAMETERS: read-out: IC50 (nM), neuraminidase inhibitor

# SMILES DATA, TESTED TARGET, IC50, nM
measured = [
    ("CCC(CC)[C@H](NC(C)=O)[C@@H]1[C@H](O)[C@@H](C(=O)O)C[C@H]1N=C(N)N", "NA activity of A(H3N2)-WT (Influenza A virus, UniProt P06818)", 0.19),
]
